Values compiled from patent US10434181B2.

# Assayed target: 5HT4B receptors (serotonin 4B receptors) (Homo sapiens, UniProt Q13639)
# Construct: expressed in transfected cells
# Sequence (Q13639 whole entry): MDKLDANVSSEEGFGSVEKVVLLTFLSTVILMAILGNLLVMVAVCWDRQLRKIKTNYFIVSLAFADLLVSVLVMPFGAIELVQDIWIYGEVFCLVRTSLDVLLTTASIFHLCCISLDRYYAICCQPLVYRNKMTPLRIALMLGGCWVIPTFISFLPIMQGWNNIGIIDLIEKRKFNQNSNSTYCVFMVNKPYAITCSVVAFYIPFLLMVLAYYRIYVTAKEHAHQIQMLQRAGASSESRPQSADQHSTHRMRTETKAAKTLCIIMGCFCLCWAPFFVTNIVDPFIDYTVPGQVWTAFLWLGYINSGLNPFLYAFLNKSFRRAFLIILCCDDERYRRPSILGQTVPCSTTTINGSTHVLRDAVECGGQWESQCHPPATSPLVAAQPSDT
# Measurement description: Competition binding assay (serotonin 4B receptors), [3H]GR113808
# Condition parameters: IC50 relative to metoclopramide, 5HT4B binding
Experimental endpoint: Fold-change Relative to Parent

The following molecules have reported results that may help.
{"Molecule": "CCN(CCNC(=O)c1cc(Cl)c(N)cc1OC)CCOCCOCCOC [mPEG3-N-Metoclopramide]", "Fold-change Relative to Parent": 2.1}
{"Molecule": "CCN(CCNC(=O)c1cc(Cl)c(N)cc1OC)CCOCCOCCOCCOC [mPEG4-N-Metoclopramide]", "Fold-change Relative to Parent": 2.0}

P = CCN(CCNC(=O)c1cc(Cl)c(N)cc1OC)CCOCCOCCOCCOCCOC [mPEG5-N-Metoclopramide]
Q = CCN(CCNC(=O)c1cc(Cl)c(N)cc1OC)CCOCCOCCOCCOCCOCCOCCOCCOCCOC [mPEG9-N-Metoclopramide]
R = CCN(CCNC(=O)c1cc(Cl)c(N)cc1OC)CCOCCOCCOCCOCCOCCOCCOC [mPEG7-N-Metoclopramide]
q: Provide the items ranked by increasing Fold-change Relative to Parent. Give the labels in the order specified.
a: P, R, Q
(P: 3.8, R: 8.8, Q: 13.3)
